# credit: ChEMBL document CHEMBL1156566

system_name: Human immunodeficiency virus type 1 integrase (Human immunodeficiency virus 1, UniProt Q7ZJM1)
Sequence (Q7ZJM1 whole entry): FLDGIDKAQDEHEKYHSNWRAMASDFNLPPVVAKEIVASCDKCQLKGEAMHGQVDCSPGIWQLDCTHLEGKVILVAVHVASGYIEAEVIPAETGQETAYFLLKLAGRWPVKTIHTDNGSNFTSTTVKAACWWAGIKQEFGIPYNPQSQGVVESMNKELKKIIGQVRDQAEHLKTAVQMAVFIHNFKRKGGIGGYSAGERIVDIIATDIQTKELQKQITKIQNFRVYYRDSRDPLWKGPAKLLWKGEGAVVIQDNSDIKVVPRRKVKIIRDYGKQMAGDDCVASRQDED
assay_summary: Inhibition of HIV1 integrase DNA strand transfer activity
measurement_name: IC50 (µM)

The examples below pair each entry with its known result.
CCn1cc(C(=O)O)c(=O)c2c1C(=O)C=C(Sc1ccccc1)C2=O 1.6
COCCn1cc(C(=O)O)c(=O)c2cc(Cc3ccc(Cl)cc3Cl)ccc21 16.5
O=C(O)c1cn(CCO)c2ccc(Sc3ccccc3)cc2c1=O 18.5

[a] CCn1cc(C(=O)O)c(=O)c2c1C(=O)C=CC2=O
[b] O=C(O)c1cn(CCO)c2ccc(Cc3ccc(Cl)cc3Cl)cc2c1=O
[c] CN(C)CCn1cc(C(=O)O)c(=O)c2cc(Cc3ccc(Cl)cc3Cl)ccc21
Rank the items in ascending order with respect to IC50. Reply format: the labels, ordered as requested.
b, c, a

---

system_name: Human immunodeficiency virus type 1 integrase (Human immunodeficiency virus 1, UniProt Q7ZJM1)
assay_summary: Inhibition of HIV1 integrase by overall integration assay
pIC50: −log10 of the molar value.
measurement_name: pIC50

Sample answers from the record:
CCn1cc(C(=O)O)c(=O)c2cc(Nc3cccc(Cl)c3F)ccc21 4.42
O=C(c1ccc2c(c1)c(=O)c(C(=O)O)cn2CCCO)c1ccc(Cl)cc1Cl 4.13
O=C(O)c1cn(CCO)c2ccc(-c3ccncc3)cc2c1=O 4.11
O=C(O)c1cn(CCCCO)c2ccc(Cc3ccc(Cl)cc3Cl)cc2c1=O 7.30

[1] O=C(O)c1cn(CCO)c2ccc(Cc3ccc(Cl)cc3Cl)cc2c1=O
[2] O=C(O)c1cn(CCO)c2ccc(Oc3ccc(F)c(Cl)c3)cc2c1=O
[3] CCn1cc(C(=O)O)c(=O)c2c1C(=O)C=CC2=O
[4] O=C(O)c1cn(CCCO)c2ccc(Cc3ccc(Cl)cc3Cl)cc2c1=O
Exam item: list the entries in increasing order of pIC50. I would appreciate it if you listed the labels in the requested order.
2, 3, 4, 1
(2: 4.06, 3: 4.36, 4: 6.05, 1: 7.15)

---

system_name: Human immunodeficiency virus type 1 integrase (Human immunodeficiency virus 1, UniProt Q7ZJM1)
assay_summary: Inhibition of HIV1 integrase DNA strand transfer activity
pIC50: −log10 of the molar value.
measurement_name: pIC50

[a] CCn1cc(C(=O)O)c(=O)c2c1C(=O)C=C(Nc1ccc(F)c(Cl)c1)C2=O
[b] O=C(O)c1cn(CCCO)c2ccc(Cc3ccc(Cl)cc3Cl)cc2c1=O
pIC50 comparison. Which is larger, a or b ? Let me know the label of the one you choose.
b

---

assay_summary: Cytotoxicity against human MT4 cells by MTT assay
Format: cell-based
// reported CC50 for each item listed
Give the value in µM but do not write µM after it.

O=C(Nc1ccccc1)c1ccc2c(c1)c(=O)c(C(=O)O)cn2CCO 224
CCn1cc(C(=O)O)c(=O)c2cc(Nc3cccc(Cl)c3F)ccc21 9.8
O=C(O)c1cn(CCO)c2ccc(Sc3ccccc3)cc2c1=O 22.7

Tell me its CC50 given CN(C)CCn1cc(C(=O)O)c(=O)c2cc(Cc3ccc(Cl)cc3Cl)ccc21 as the entry.
5.2

Supply CC50 value. Item: O=C(O)c1cn(CCO)c2ccc(/C=C/c3ccccc3)cc2c1=O
22.6

Supply recorded CC50 for O=C(O)c1cn(CCCO)c2ccc(Cc3ccc(Cl)cc3Cl)cc2c1=O here.
3.6

Provide CC50 value for the following molecule: CCn1cc(C(=O)O)c(=O)c2c1C(=O)C=C(Sc1ccccc1)C2=O
30
